Test system: Leishmania infantum promastigote forms
Experiment: Promastigote test (extracellular forms), L. infantum
Type: cell-based
Conditions: Leishmania infantum; 72 h; 100 µM to 1 µM; mean ± SD of four determinations
Assignment: determine reported pIC50 for the given compounds.
Give bare numbers, as −log10 of the molar value.

Example results:
Memo: "c1ccc(CN2CCN(Cc3ccccn3)CCN(Cc3ccccn3)CC2)nc1" , reported pIC50: 5.59

pIC50 for "CN1CCN(C)CCN(CCN2CCN(C)CCN(C)CC2)CC1" is 4.06

Notebook: CN(Cc1ccccn1)C1CCCCC1N(C)Cc1ccccn1 (centres unmarked) , pIC50 read as 4.08

Lookup result for "CN1CCN(C)CCN(Cc2ccccn2)CC1" ; measured pIC50: 4.14

Below: the item to evaluate.
Sample "CN(C)c1ccnc(CN2CCC[C@H]2[C@@H]2CCCN2Cc2cc(N(C)C)ccn2)c1" ; pIC50 observed: 4.91

* * *

Give IC50 for every item shown.
System: Leishmania braziliensis promastigote forms
Experiment: Promastigote test (extracellular forms), L. braziliensis
Type: cell-based
Details: Leishmania braziliensis; 72 h; 100 µM to 1 µM; mean ± SD
Answers are plain numbers, in µM.

The examples below pair each entry with its known result.
Looking up "CN(C)c1ccnc(CN2CCC[C@H]2[C@@H]2CCCN2Cc2cc(N(C)C)ccn2)c1" , I see its IC50 listed as 11.7

Measured IC50 of CN(Cc1ccccn1)C1CCCCC1N(C)Cc1ccccn1 (centres unmarked) : 73.8

The molecule listed as "c1ccc(CN2CCN(Cc3ccccn3)CCN(Cc3ccccn3)CC2)nc1" has a reported IC50 of 5.5

Item: "CN1CCN(C)CCN(CCN2CCN(C)CCN(C)CC2)CC1" | IC50: 60.6

As a next step, examine the molecule that follows.
response.value for "CN1CCN(C)CCN(Cc2ccccn2)CC1" (field: IC50) = 53.2

* * *

Tested on: J774.2 murine macrophages
Assay: Cytotoxicity test on macrophages by flow cytometry
Type: cell-based, mouse
Conditions: Mus musculus, J774.2 macrophages, 72 h, read-out: Toxicity IC50 Macrophage
Task for the reader: assign each of the following compounds its reported IC50.
Numbers only, in µM.

Examples with answers:
So, CN1CCN(C)CCN(CCN2CCN(C)CCN(C)CC2)CC1 [Compound 11, TACN2] ? Its IC50 was 75.1

Short answer for c1ccc(CN2CCN(Cc3ccccn3)CCN(Cc3ccccn3)CC2)nc1 [Compound 10] : IC50 was 126

// IC50 value for CN1CCN(C)CCN(Cc2ccccn2)CC1 [Compound 9] : 100

The value of IC50 measured for the compound CN(C)c1ccnc(CN2CCC[C@H]2[C@@H]2CCCN2Cc2cc(N(C)C)ccn2)c1 [Compound 7] turned out to be 172

Okay, next one:
For record CN(Cc1ccccn1)C1CCCCC1N(C)Cc1ccccn1 (centres unmarked) [Compound 8] the listed IC50 is 268

* * *

Molecular target: human CuZn-SOD (Homo sapiens)
Construct: purchased Sigma Chemical Co. (St. Louis, MO, USA)
Sequence (P00441 whole entry): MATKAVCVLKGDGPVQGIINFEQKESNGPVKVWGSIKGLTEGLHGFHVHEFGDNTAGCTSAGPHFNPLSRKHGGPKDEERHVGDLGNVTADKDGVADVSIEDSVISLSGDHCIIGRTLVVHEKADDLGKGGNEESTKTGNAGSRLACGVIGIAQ
Test: SOD inhibition assay, human CuZn-SOD
Assay type: biochemical
Details: assayed 100 µM to 0.1 µM; non-linear regression
What IC50 was measured for each of the following?

List IC50 for every entry below, keeping the order given.
1. CN1CCN(C)CCN(Cc2ccccn2)CC1.O=S(=O)([O-])C(F)(F)F.O=S(=O)([O-])C(F)(F)F.[Mn+2]
2. c1ccc(CN2CCN(Cc3ccccn3)CCN(Cc3ccccn3)CC2)nc1

Result block:
> 100 µM
> 300 µM

What the record says about "CN(C)c1ccnc(CN2CCC[C@H]2[C@@H]2CCCN2Cc2cc(N(C)C)ccn2)c1" : IC50 is > 500 µM
